test system: anti-M2 human monoclonal antibody Z3G1; type: binding
quantity.name: Signal (peptides that bind to Z3G1)
Give a plain numeric answer without units written out.

Look over these answered cases.
substance	reading
1481 (CVETPIRNEWLLTEVETPICEVETPIRNE; epitope peptide; MISC_FEATURE (1)..(1): C is an attachment site for a CLIP; MISC_FEATURE (10)..(10): W is an attachment site for a CLIP; MISC_FEATURE (11)..(11): L is an attachment site for a CLIP; MISC_FEATURE (29)..(29): E is an attachment site for a CLIP) [compound 1481]	1592
438 (SLLTEVETPIRN; epitope peptide) [compound 438]	2130
1314 (CMSLCTEVETPIRNE; epitope peptide) [compound 1314]	1705

Note Signal (peptides that bind to Z3G1) for the substance shown: 1286 (MSLLKEVETPIRNEWGCRCN; epitope peptide) [compound 1286]
2825

Specify reported Signal (peptides that bind to Z3G1) for the substance shown: 1289 (MSLLNEVETPIRNEWGCRCN; epitope peptide) [compound 1289]
2824

Quickly give me recorded Signal (peptides that bind to Z3G1) for 1359 (CLLTEVCTPIRNE; epitope peptide) [compound 1359]
1585

Note Signal (peptides that bind to Z3G1) for the substance shown: 1345 (MSCLCECGMSLLCEV; epitope peptide) [compound 1345]
1307

Give recorded Signal (peptides that bind to Z3G1). 1323 (MCLLTEVCTPIRNE; epitope peptide) [compound 1323]
1407

----------
system: anti-M2 human monoclonal antibody Z3G1; format: binding
quantity.name: Signal (peptides that show specific binding to Z3G1)
Write the number on its own, no unit after it.

substance	reading
683 (SLLTEVETPIRNEWGCACNDSSD; epitope peptide) [compound 683]	2301
449 (SLNTEVETPIRNEWGCRCNDSSD; epitope peptide) [compound 449]	1908
453 (SLLTEVETPIRNEAGCRCNDSSD; epitope peptide) [compound 453]	2383

Look up Signal (peptides that show specific binding to Z3G1) of 351 (SLLCEVGSLLTEC; epitope peptide) [compound 351] and report it.
2438

Please supply the value of reported Signal (peptides that show specific binding to Z3G1) for the item 1577 (SLDTEVETPIRNEWGCRCNDSSD; epitope peptide) [compound 1577]
1505

----------
system: HuM2e antibody 23K12; format: binding, human
The reader will find reported Signal (peptides that bind to 23K21 and 8I10) values listed item by item below.
Lab note: jot the number down without any unit.

Example results:
substance	study.system	reading
645 (SLLTEVVTPIRNEWGCRCNDSSD; epitope peptide) [compound 645]	HuM2e antibody 23K12	763
565 (SLLTEVETPIRVEWGCRCNDSSD; epitope peptide) [compound 565]	HuM2e antibody 23K12	884
610 (SLLTEVETDIRNEWGCRCNDSSD; epitope peptide) [compound 610]	HuM2e antibody 23K12	813
534 (SLLTEVEKPIRNEWGCRCNDSSD; epitope peptide) [compound 534]	HuM2e antibody 23K12	963

Shifting focus to the substance that follows.
Using the record for 480 (SLLTECGCLCTCV; epitope peptide) [compound 480] , state its measured Signal (peptides that bind to 23K21 and 8I10).
1193

----------
tested on: HuM2e antibody 23K12; assay type: binding, human
quantity.name: Signal (peptides that bind to 23K21 and 8I10)

For orientation, consider the following solved cases.
substance	study.system	reading
454 (SLLTEVETPIMNEWGCRCNDSSD; epitope peptide) [compound 454]	HuM2e antibody 23K12	1308
518 (SYLTEVETPIRNEWGCRCNDSSD; epitope peptide) [compound 518]	HuM2e antibody 23K12	1019
332 (SALTEVETPIRNEWGCRCNDSSD; epitope peptide) [compound 332]	HuM2e antibody 23K12	1689

State its Signal (peptides that bind to 23K21 and 8I10) for this substance: 719 (SLLTEVETPIRNEWGCTCNDSSD; epitope peptide) [compound 719]
700

Retrieve Signal (peptides that bind to 23K21 and 8I10) measured for 509 (SLLTEVETPIYNEWGCRCNDSSD; epitope peptide) [compound 509] and print it.
1049

Give me measured Signal (peptides that bind to 23K21 and 8I10), please, for this substance: 631 (SLLTEVETPIRKEWGCRCNDSSD; epitope peptide) [compound 631]
782

Please indicate Signal (peptides that bind to 23K21 and 8I10) recorded for 288 (CSCLCEVGMSLLTEV; epitope peptide) [compound 288]
2154

Provide one value: measured Signal (peptides that bind to 23K21 and 8I10) of 356 (SLLTEVETPIRNEWGCRCNDSDD; epitope peptide) [compound 356]
1553

Identify the reported Signal (peptides that bind to 23K21 and 8I10) for the following entry. 483 (CSLLTECGCSLLTEC; epitope peptide) [compound 483]
1177
